# Test protocol: Proportions of cis and trans at the photostationary state in DMSO from absorbance spectra (Ernst Fischer method)
# Assay type: physicochemical
# Stated conditions: 530 nm
Measured quantity: %cis at the photostationary state

Sample records with %cis at the photostationary state:
[[record]]
compound = "Cc1cc(OCC(O)C(C)(C)C)ccc1/N=N/c1cccc(-c2ccc(C(=O)O)cc2C)c1 (stereo not shown) [Compound 11d]"
observed_measurement = "25,59%"

[[record]]
compound = "Cc1cc(OCC(O)C(C)(C)C)ccc1/N=N/c1cccc(-c2ccc(CO)cc2C)c1 (stereo not shown) [Compound 12d]"
observed_measurement = "29,47%"

[[record]]
compound = "COC(=O)c1ccc(-c2cccc(/N=N/c3ccc(OCC(O)C(C)(C)C)c(C)c3)c2)cc1 (stereo not shown) [Compound 10a]"
observed_measurement = "20,56%"


Now take the following compound into account.
Measured %cis at the photostationary state, Cc1cc(/N=N/c2cccc(-c3ccc(C(=O)O)cc3C)c2)ccc1OCC(O)C(C)(C)C (stereo not shown) [Compound 11c] : 22,70%

----------
# Test protocol: Photostationary state (PSS) determination by HPLC-MS in aqueous assay buffer
# Assay type: physicochemical
# Stated conditions: 21 °C, HPLC-MS, 3 min illumination 365 nm, 60 μM, aqueous buffer 0.6% DMSO
criterion met if PSS365 (% cis) is below 90%. criterion not met if not; exact matches included in criterion not met.

[[record]]
compound = "Cc1cc(OCC(O)C(C)(C)C)ccc1N=Nc1cccc(-c2ccc(C(=O)O)cc2)c1 (stereo not drawn) [Compound 11b]"
assigned_category = "criterion not met"

[[record]]
compound = "Cc1cc(/N=N/c2cccc(-c3ccc(C(=O)O)cc3C)c2)ccc1OCC(O)C(C)(C)C (stereo not drawn) [Compound 11c]"
assigned_category = "criterion not met"

[[record]]
compound = "Cc1cc(/N=N/c2cccc(-c3ccc(CO)cc3)c2)ccc1OCC(O)C(C)(C)C (stereo not drawn) [Compound 12a]"
assigned_category = "criterion met"

[[record]]
compound = "Cc1cc(/N=N/c2cccc(-c3ccc(C(=O)O)cc3)c2)ccc1OCC(O)C(C)(C)C (stereo not drawn) [Compound 11a]"
assigned_category = "criterion not met"

[[record]]
compound = "Cc1cc(/N=N/c2cccc(-c3ccc(CO)cc3C)c2)ccc1OCC(O)C(C)(C)C (stereo not drawn) [Compound 12c]"
assigned_category = "criterion met"


Request: Please let me know if Cc1cc(OCC(O)C(C)(C)C)ccc1/N=N/c1cccc(-c2ccc(CO)cc2)c1 (stereo not drawn) [Compound 12b] shows PSS365 (% cis) below 90%.
Result: criterion met

Request: Please let me know if COC(=O)c1ccc(-c2cccc(/N=N/c3ccc(OCC(O)C(C)(C)C)c(C)c3)c2)c(C)c1 (stereo not drawn) [Compound 10c] shows PSS365 (% cis) below 90%.
Result: criterion met

Request: Please let me know if COC(=O)c1ccc(-c2cccc(/N=N/c3ccc(OCC(O)C(C)(C)C)cc3C)c2)cc1 (stereo not drawn) [Compound 10b] shows PSS365 (% cis) below 90%.
Result: criterion met

Request: Please let me know if Cc1cc(OCC(O)C(C)(C)C)ccc1/N=N/c1cccc(-c2ccc(C(=O)O)cc2C)c1 (stereo not drawn) [Compound 11d] shows PSS365 (% cis) below 90%.
Result: criterion not met

Request: Please let me know if COC(=O)c1ccc(-c2cccc(/N=N/c3ccc(OCC(O)C(C)(C)C)c(C)c3)c2)cc1 (stereo not drawn) [Compound 10a] shows PSS365 (% cis) below 90%.
Result: criterion met

----------
# Test protocol: Proportions of cis and trans at the photostationary state in DMSO from absorbance spectra (Ernst Fischer method)
# Format: physicochemical
# Stated conditions: 405 nm
Below, each entry is listed with its recorded %trans at the photostationary state.

Sample records with %trans at the photostationary state:
[[record]]
compound = "Cc1cc(/N=N/c2cccc(-c3ccc(CO)cc3)c2)ccc1OCC(O)C(C)(C)C (centres unmarked) [Compound 12a]"
measured_quantity = "%trans at the photostationary state"
observed_measurement = "36,36%"

[[record]]
compound = "COC(=O)c1ccc(-c2cccc(/N=N/c3ccc(OCC(O)C(C)(C)C)cc3C)c2)c(C)c1 (centres unmarked) [Compound 10d]"
measured_quantity = "%trans at the photostationary state"
observed_measurement = "37,78%"

[[record]]
compound = "Cc1cc(OCC(O)C(C)(C)C)ccc1/N=N/c1cccc(-c2ccc(CO)cc2)c1 (centres unmarked) [Compound 12b]"
measured_quantity = "%trans at the photostationary state"
observed_measurement = "37,70%"

[[record]]
compound = "Cc1cc(OCC(O)C(C)(C)C)ccc1N=Nc1cccc(-c2ccc(C(=O)O)cc2)c1 (centres unmarked) [Compound 11b]"
measured_quantity = "%trans at the photostationary state"
observed_measurement = "36,36%"

[[record]]
compound = "COC(=O)c1ccc(-c2cccc(/N=N/c3ccc(OCC(O)C(C)(C)C)c(C)c3)c2)cc1 (centres unmarked) [Compound 10a]"
measured_quantity = "%trans at the photostationary state"
observed_measurement = "39,58%"


Measured %trans at the photostationary state, COC(=O)c1ccc(-c2cccc(/N=N/c3ccc(OCC(O)C(C)(C)C)c(C)c3)c2)c(C)c1 (centres unmarked) [Compound 10c] : 38,86%

Measured %trans at the photostationary state, Cc1cc(/N=N/c2cccc(-c3ccc(CO)cc3C)c2)ccc1OCC(O)C(C)(C)C (centres unmarked) [Compound 12c] : 40,26%

Measured %trans at the photostationary state, Cc1cc(OCC(O)C(C)(C)C)ccc1/N=N/c1cccc(-c2ccc(C(=O)O)cc2C)c1 (centres unmarked) [Compound 11d] : 38,58%

----------
# Test protocol: Proportions of cis and trans at the photostationary state in DMSO from absorbance spectra (Ernst Fischer method)
# Assay type: physicochemical
# Stated conditions: 530 nm
# Experimental: 2. Photochemical characterization. A 50 µM solution of each compound in DMSO was dispensed into a transparent 96-well plate (200 µL per well). The absorption spectra were recorded from 300 to 600 nm with 2 nm fixed intervals using a Tecan Spark 20M Multimode microplate reader. Initial measurements were performed in the dark, followed by spectra acquired immediately after each 3 min period of light irradiation at different wavelengths using 96-well LED array plates (LEDA Teleopto). […]
Measured quantity: %cis at the photostationary state

Sample records with %cis at the photostationary state:
[[record]]
molecule = "Cc1cc(/N=N/c2cccc(-c3ccc(C(=O)O)cc3)c2)ccc1OCC(O)C(C)(C)C (stereo not shown) [Compound 11a]"
observed_measurement = "21,22%"

[[record]]
molecule = "Cc1cc(OCC(O)C(C)(C)C)ccc1/N=N/c1cccc(-c2ccc(CO)cc2)c1 (stereo not shown) [Compound 12b]"
observed_measurement = "19,72%"

[[record]]
molecule = "COC(=O)c1ccc(-c2cccc(/N=N/c3ccc(OCC(O)C(C)(C)C)cc3C)c2)c(C)c1 (stereo not shown) [Compound 10d]"
observed_measurement = "20,03%"


Measured %cis at the photostationary state, COC(=O)c1ccc(-c2cccc(/N=N/c3ccc(OCC(O)C(C)(C)C)c(C)c3)c2)c(C)c1 (stereo not shown) [Compound 10c] : 21,34%

----------
# Test protocol: Proportions of cis and trans at the photostationary state in DMSO from absorbance spectra (Ernst Fischer method)
# Assay type: physicochemical
# Stated conditions: 420 nm
# Procedure: 2. Photochemical characterization. A 50 µM solution of each compound in DMSO was dispensed into a transparent 96-well plate (200 µL per well). The absorption spectra were recorded from 300 to 600 nm with 2 nm fixed intervals using a Tecan Spark 20M Multimode microplate reader. Initial measurements were performed in the dark, followed by spectra acquired immediately after each 3 min period of light irradiation at different wavelengths using 96-well LED array plates (LEDA Teleopto). […]
Measured quantity: %trans at the photostationary state

Sample records with %trans at the photostationary state:
[[record]]
molecule = "COC(=O)c1ccc(-c2cccc(/N=N/c3ccc(OCC(O)C(C)(C)C)cc3C)c2)c(C)c1 (stereo not drawn) [Compound 10d]"
observed_measurement = "40,01%"

[[record]]
molecule = "COC(=O)c1ccc(-c2cccc(/N=N/c3ccc(OCC(O)C(C)(C)C)c(C)c3)c2)cc1 (stereo not drawn) [Compound 10a]"
observed_measurement = "41,95%"

[[record]]
molecule = "Cc1cc(/N=N/c2cccc(-c3ccc(CO)cc3C)c2)ccc1OCC(O)C(C)(C)C (stereo not drawn) [Compound 12c]"
observed_measurement = "43,87%"


Measured %trans at the photostationary state, COC(=O)c1ccc(-c2cccc(/N=N/c3ccc(OCC(O)C(C)(C)C)cc3C)c2)cc1 (stereo not drawn) [Compound 10b] : 37,28%

Measured %trans at the photostationary state, COC(=O)c1ccc(-c2cccc(/N=N/c3ccc(OCC(O)C(C)(C)C)c(C)c3)c2)c(C)c1 (stereo not drawn) [Compound 10c] : 40,29%

Measured %trans at the photostationary state, Cc1cc(OCC(O)C(C)(C)C)ccc1/N=N/c1cccc(-c2ccc(CO)cc2)c1 (stereo not drawn) [Compound 12b] : 40,04%

Measured %trans at the photostationary state, Cc1cc(OCC(O)C(C)(C)C)ccc1N=Nc1cccc(-c2ccc(C(=O)O)cc2)c1 (stereo not drawn) [Compound 11b] : 39,53%

Measured %trans at the photostationary state, Cc1cc(OCC(O)C(C)(C)C)ccc1/N=N/c1cccc(-c2ccc(CO)cc2C)c1 (stereo not drawn) [Compound 12d] : 39,87%

Measured %trans at the photostationary state, Cc1cc(/N=N/c2cccc(-c3ccc(C(=O)O)cc3)c2)ccc1OCC(O)C(C)(C)C (stereo not drawn) [Compound 11a] : 41,91%

Measured %trans at the photostationary state, Cc1cc(OCC(O)C(C)(C)C)ccc1/N=N/c1cccc(-c2ccc(C(=O)O)cc2C)c1 (stereo not drawn) [Compound 11d] : 45,31%

Measured %trans at the photostationary state, Cc1cc(/N=N/c2cccc(-c3ccc(C(=O)O)cc3C)c2)ccc1OCC(O)C(C)(C)C (stereo not drawn) [Compound 11c] : 40,74%

Measured %trans at the photostationary state, Cc1cc(/N=N/c2cccc(-c3ccc(CO)cc3)c2)ccc1OCC(O)C(C)(C)C (stereo not drawn) [Compound 12a] : 39,55%
